# Target Under Test: ligand binding domain of human FXR (Homo sapiens (Human))
# Sequence (Q96RI1 262-486): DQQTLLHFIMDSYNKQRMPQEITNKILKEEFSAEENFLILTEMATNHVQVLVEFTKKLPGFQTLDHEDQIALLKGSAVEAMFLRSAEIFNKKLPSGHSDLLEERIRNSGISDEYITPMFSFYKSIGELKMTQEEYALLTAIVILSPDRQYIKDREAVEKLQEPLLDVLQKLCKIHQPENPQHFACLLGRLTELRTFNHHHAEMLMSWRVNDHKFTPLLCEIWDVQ
# Assay Method Text: FXR ligand binding assay (LanthaScreen TR-FRET, SRC2-2 peptide recruitment)
# Condition Parameters: extent of activation relative to GW4064; read-out: % Efficacy
Quantity Kind: Emax (%)
Just the number please, in %, no unit attached.

Please report the recorded Emax for O=C(NS(=O)(=O)C1CCCC1)c1ccc(N2C(=O)[C@@H]3C[C@H]2C[C@H]3OCc2c(-c3c(Cl)cccc3Cl)noc2C2CC2)cn1 [Compound I-353] .
159

Please report the recorded Emax for O=C(NS(=O)(=O)C1CCOC1)c1ccc(N2C[C@@H]3C[C@H]2C[C@H]3OCc2c(-c3c(Cl)cccc3Cl)noc2C2CC2)cc1 (stereo partly drawn) [Compound I-185] .
155

Please report the recorded Emax for O=C(O)c1cnc(N2C[C@@H]3C[C@H]2C[C@H]3OCc2c(-c3c(Cl)cccc3Cl)noc2C2CC2)c(F)c1 [Compound I-129] .
152

Please report the recorded Emax for Cc1cc(C(=O)O)cc2sc(N3C[C@@H]4C[C@H]3C[C@H]4OCc3c(-c4c(Cl)cccc4Cl)noc3C3CC3)nc12 [Compound I-13] .
174

Please report the recorded Emax for O=C(O)c1cc(C2CCOC2)c2nc(N3C[C@@H]4C[C@H]3C[C@H]4OCc3c(-c4c(Cl)cccc4Cl)noc3C3CC3)sc2c1 (stereo partly drawn) [Compound I-251] .
133

Please report the recorded Emax for O=C1NCc2cc(N3C[C@@H]4C[C@H]3C[C@H]4OCc3c(-c4c(Cl)cccc4Cl)noc3C3CC3)ccc21 [Compound I-135] .
152

Please report the recorded Emax for CC(C)(C)c1cc(C(=O)O)cc2sc(N3C[C@@H]4C[C@H]3C[C@H]4OCc3c(-c4c(Cl)cccc4Cl)noc3C3CC3)nc12 [Compound I-248] .
116

Please report the recorded Emax for O=C(NS(=O)(=O)C1CC1)c1ccc(N2C(=O)[C@@H]3C[C@H]2C[C@H]3OCc2c(-c3c(Cl)cccc3Cl)noc2C2CC2)cc1 [Compound I-337] .
174

Please report the recorded Emax for O=C(O)c1ccc(N2C(=O)[C@@H]3C[C@H]2C[C@H]3OCc2c(-c3c(Cl)cccc3Cl)noc2C2CC2)nc1 [Compound I-322] .
132

Please report the recorded Emax for O=C(O)c1cc(OC2CC2)c2nc(N3C[C@@H]4C[C@H]3C[C@H]4OCc3c(C4CCC5(CC4)CC5)noc3C3CC3)sc2c1 [Compound I-278] .
96

Please report the recorded Emax for O=C(O)c1cc([C@@H]2CCOC2)c2nc(N3C[C@@H]4C[C@H]3C[C@H]4OCc3c(-c4c(Cl)cccc4Cl)noc3C3CC3)sc2c1 [Compound I-252] .
135

Please report the recorded Emax for O=C(NS(=O)(=O)C1CC1)c1ccc(N2C(=O)[C@@H]3C[C@H]2C[C@H]3OCc2c(-c3c(Cl)cccc3Cl)noc2C2CC2)cn1 [Compound I-351] .
132

Origin of the recorded values: patent US10793568B2
